B1: Chromodomain-helicase-DNA-binding protein 7, residues 2564 to 2605; numbered along this chain, Q9P2D1 (parent)
chain: DPDTRIPVINLEDGTRLVGEDAPKNKDLVEWLKLHPTYTVDM

Variants of: B1
experiment.description: abundance fitness (aPCA) (normalised: wild type 0, dead -1); higher = more abundant; growth selection in yeast, the domain comes from the species named
condition: Homo sapiens
Hi, to clarify the labels: met covers abundance fitness from -0.08 upward, not met covers anything below -0.08.

mutation.label | qualitative.label
K33N | not met
D41R | not met
D41L | not met
V8I | not met
N10H | not met
T37H | met
K26Q | met
H35V | not met
P7K | met
T15V | met

Task: Has N10D a recorded abundance fitness greater than or equal to -0.08?
Output: not met

Task: Has L32D a recorded abundance fitness greater than or equal to -0.08?
Output: not met

Task: Has E20W a recorded abundance fitness greater than or equal to -0.08?
Output: not met
